Cited source for all entries: PubChem BioAssay (NCI)

# Test system: HCC-2998 colon
# test name: NCI tumour cell line growth inhibition, 48 h
Hi there, I'd appreciate the recorded TGI for every entry that follows.

Study these solved cases before continuing.
INSERT INTO assay_data (compound, reported_property, reading) VALUES
  ('CC(SC(=S)N(C)C)C(=O)Nc1nnc(-c2ccc(Cl)cc2)o1 (stereo not given)', 'TGI', '> 100 µM'),
  ('c1ccc(C2(c3ccccc3)S/C(=C3/SC(c4ccccc4)(c4ccccc4)c4ccccc43)c3ccccc32)cc1', 'TGI', '> 100 µM'),
  ('Clc1ccc(C2ON=C(c3ccccc3)N2C23CC4CC(CC(C4)C2)C3)cc1Cl (stereo not given)', 'TGI', '> 10 µM'),
  ('COc1ccccc1CN=C1NC(=O)/C(=C/c2ccc3ncccc3c2)S1', 'TGI', '> 25 µM');

Query: Which measured TGI belongs to CCCCCCCCCCCCCCCCOP(=O)(O)OP(=O)(O)OCC1OC(n2cnc3c(N)ncnc32)C(O)C1O (stereo not given) , tested on HCC-2998 colon?
Reply: > 100 µM
